For each record, write down the corresponding pIC50.
Target: Proteasome subunit beta type-8 (Homo sapiens, UniProt P28062)
Sequence (P28062 whole entry): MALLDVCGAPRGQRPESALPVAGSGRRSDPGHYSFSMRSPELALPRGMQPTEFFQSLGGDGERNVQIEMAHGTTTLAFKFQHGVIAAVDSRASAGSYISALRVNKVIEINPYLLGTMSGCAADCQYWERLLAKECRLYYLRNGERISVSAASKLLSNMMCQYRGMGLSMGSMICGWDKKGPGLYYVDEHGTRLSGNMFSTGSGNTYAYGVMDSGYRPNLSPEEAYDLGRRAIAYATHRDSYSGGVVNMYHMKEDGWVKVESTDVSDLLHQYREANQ
Test: Inhibition of human immunoproteasome beta5 subunit using Suc-LLVY-AMC as substrate pretreated for 30 mins followed by substrate addition and measured after 60 mins by fluorescence assay
// scale note: pIC50 = -log10(conc_M); give the bare number

Bench note: what pIC50 did C=CCOC(=O)[C@@H](NC(=O)[C@@H](NC(=O)[C@@H]1OC(=O)[C@H]1[C@@H](C)CC)C(C)C)C(C)C show?
7.39

What about CC(C)[C@H](NC(=O)[C@@H]1OC(=O)[C@H]1C(C)C)C(=O)N[C@H](C(=O)OCc1ccccc1)C(C)C ?
7.35

And CC(C)[C@H](NC(=O)[C@@H](NC(=O)[C@@H]1OC(=O)[C@H]1C(C)C)C(C)C)C(=O)O ?
6.17

What about CC[C@H](C)[C@@H]1C(=O)O[C@H]1C(=O)N[C@H](C(=O)N[C@@H](COCc1ccccc1)C(=O)OCc1ccccc1)C(C)C ?
8.04
